Where do these numbers come from? They come from PubChem BioAssay (NCI).

- Tested on: OVCAR-8 ovarian
- method_description: NCI-60 one-dose screen, 48 h (100 = growth as untreated, 0 = no growth, -100 = all killed)
- run_conditions: 10 µM unless noted
This is part of a sample that, as a whole, favours compounds with a hit. Of some 83,000 tested, about 20% had one in any assay.
// reported growth for each item listed

entry_smiles	experimental_system	growth / %
Cc1nc2c(O)cccc2cc1CO	OVCAR-8 ovarian	120
Clc1ncn[nH]1	OVCAR-8 ovarian	92
Nc1nc(SCC2(CCl)COC2)c2[nH]cnc2n1	OVCAR-8 ovarian	95.8
CCOC(=O)/C(=C/c1ccccc1)C(=O)c1ccccc1	OVCAR-8 ovarian	65.3
O=C(CN1CCCCC1)Sc1nnc2sc3ccccc3n12	OVCAR-8 ovarian	98.8
